Target Desc: second (BD2: amino acids E352-E168) bromodomain of BRD4 (Homo sapiens, UniProt O60885)
Construct: protocol
Measurement Notes: TR-FRET bromodomain binding assay, BRD4 BD2
Recorded Conditions: TR-FRET assay protocol (A-G, compound concentration range); Ki calculated from IC50, probe Kd and probe concentration; read-out: TR-FRET Binding Ki: BRD4 (BDII_E352-M457)
Experimental: A time-resolved fluorescence resonance energy transfer (TR-FRET) assay was used to determine the affinities of compounds of the Examples listed in Table 1 for each bromodomain of BRD4. […] TR-FRET data were normalized to the means of 24 no-compound controls (“high”) and 8 controls containing 1 μM un-labeled probe (“low”). […] Inhibition constants (Ki) were calculated from the IC50s, probe Kd and probe concentration. […]
pKi: −log10 of the molar value.
Quantity Kind: pKi

Recorded pKi, per entry:
CN(C)CCCNC(=O)c1cccc(-c2cc(=O)n(C)nc2-c2ccccc2Oc2ccccc2)c1 [Example 163]
6.44
Cn1nc(-c2ccccc2Oc2ccccc2)c(-c2ccc(NCCN3CCOCC3)nc2)cc1=O [Example 162]
7.12
Cn1nc(-c2ccccc2Oc2ccccc2)c(-c2ccc3c(ccn3C)c2)cc1=O [Example 208]
5.82
COc1cc(=O)n(C)nc1-c1ccccc1OCc1ccccn1 [Example 40]
4.70

(I) Cn1nc(-c2ccccc2Oc2ccccc2)c(-c2ccnc(F)c2)cc1=O [Example 54]
(II) CCS(=O)(=O)Nc1ccc(Oc2ccc(F)cc2F)c(-c2cn(C)c(=O)cc2-c2ccc(CO)cc2)c1 [Example 278]
(III) COc1cc(=O)n(C)nc1-c1ccccc1Oc1ccc(F)cc1 [Example 33]
Problem: Rank items: key pKi, increasing. Answer with the labels in sequence, matching the requested order.
Result: III, I, II
(III: 5.64, I: 6.45, II: 8.86)
